These data points were gathered from paper PMC5540273.

test system: MRCKB; construct: gene CDC42BPB; conditions: concentration: 1 μM,replicates: in singlicate; n = 1;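 further: KINOMEscan kinase panel screen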
MEASURED ATTRIBUTE: %Inh (%)

- CCn1c(-c2nonc2N)nc2cncc(CNC3CCNCC3)c21.Cl: 4
- C[C@@H]1CNc2c(sc3ccc4nc(-c5ccc(O)cc5)ccc4c23)C(=O)N1: 0
- C[C@@H](Oc1cc(-n2cnc3cc(-c4cnn(C)c4)ccc32)sc1C(N)=O)c1ccccc1Cl: 3
- CCCC(=O)Nc1n[nH]c2ncccc12: 0
- Cc1cccc(-c2nc(Nc3ccncc3)c3sccc3n2)n1: 98.5
- Cn1ccc2ncnc(Oc3ccc(NC(=O)Nc4cc(C(C)(C)C)on4)c(Cl)c3)c21: 0
- O=C1NCCc2[nH]c(-c3ccncc3)cc21: 0
- CN(c1cccc(CNc2nc(Nc3ccc4c(c3)CC(=O)N4)ncc2C(F)(F)F)c1)S(C)(=O)=O: 0
- COc1cccc(OC)c1C(=O)Nc1cccc(-c2nn3ccccc3c2-c2ccnc(Nc3cccc(F)c3)n2)c1: 3
- O=C(Nc1n[nH]c2cc(-c3ccco3)ccc12)C1CC1: 1
- O=C(Nc1ccccc1)c1cccc(Oc2ccc3nccn3n2)c1: 0
- CC(=O)Nc1nc2cnc(Nc3cc(NC(=O)c4cccc(CC(C)(C)C#N)c4)ccc3C)nc2s1: 0
- CCn1c(-c2nonc2N)nc2cncc(Br)c21: 0
- COC(=O)c1cccc(NC(=O)NC2CCN(c3ccnc(NCc4ccc(F)cc4)n3)CC2)c1: 0
- CC(C)S(=O)(=O)N1CCN(Cc2ccc3c(c2)nc(NC(=O)c2ccsc2)n3C[C@H](O)c2ccccc2)CC1: 16
- Cl.c1ccc(Oc2ccc(Nc3ccnc4cc(-c5ccc(CN6CCNCC6)o5)ccc34)cc2)nc1: 0
- Cc1nnc(-c2ccc3occ(-c4ccc(S(C)=O)cc4)c3n2)o1 (centres unmarked): 43
- CN1CCN(CCCNc2nccc(-c3c(-c4ccc(F)cc4)nn4cc(C(N)=O)ccc34)n2)CC1: 0
- C[C@@H]1CCN(C(=O)N2CCCC2)C[C@@H]1N(C)c1ncnc2[nH]ccc12: 0
- Cn1ccc2ncnc(Oc3ccc(NC(=O)Nc4cccc(C(F)(F)F)c4)c(Cl)c3)c21: 21
- O=C(Nc1ccc(Oc2ccc3nc(NC(=O)C4CC4)cn3n2)c(F)c1)c1cccn(-c2ccccc2)c1=O: 0
- COc1cc2ncn(-c3cc(OCC4CCCCC4)c(C(N)=O)s3)c2cc1OC: 0
- CNC(=O)c1ccccc1Nc1nc(Nc2cccc(CS(C)(=O)=O)c2)ncc1C.O=CO: 4
- CCOC(=O)N1CCC(n2cnc(-c3ccc(F)cc3)c2-c2ccnc(N)n2)CC1: 3
- Cn1ccc2ncnc(Oc3ccc(NC(=O)Nc4cncc(C(F)(F)F)c4)c(Cl)c3)c21: 0
- CN1CCN(CCNc2nc3cc(Oc4ccc(NC(=O)Nc5cc(C(F)(F)F)ccc5F)cc4)ccc3[nH]2)CC1.Cl.Cl: 4
- COc1cccc(C2=C(Nc3cccc(Cl)c3)C(=O)NC2=O)c1: 0
- NC(=O)c1ccc(-c2cc3ncnc(SCC(=O)O)c3s2)cc1: 0
- COc1cc2c(Nc3ccc(NC(=O)c4ccccc4)cc3)ncnc2cc1OCCCN1CCOCC1: 0
- O=C(Nc1cccc(C(F)(F)F)c1)c1cccc(Oc2ccc3nccn3n2)c1: 3
- c1ccc(Oc2ccc(Nc3ccnc4ccc(-c5ccccn5)cc34)cc2)cc1: 9
- Cn1cc(-c2cccc3c(N)c(C(N)=O)nnc23)cn1: 3
- CCNCC(Cc1ccccc1)NC(=O)c1cc(Br)c(-c2ccnc3[nH]ccc23)s1.Cl.Cl (centres unmarked): 98.2
- CS(=O)(=O)Nc1ccc(-c2ccnc3[nH]ccc23)cc1: 9
- OCCn1cc(-c2cnc3nnn(Cc4ccc5ncccc5c4)c3n2)cn1: 0
- NC(=O)Nc1sc(-c2ccc(F)cc2)cc1C(N)=O: 0
- C[C@@H](Oc1cc(-n2cnc3ccc(-c4ccncc4)cc32)sc1C(N)=O)c1ccccc1Cl: 10
- CC(=O)Nc1ccc(-c2cc3ncnc(SCC(=O)O)c3s2)cc1: 0
